Experiment: Unbound clearance in Wistar Han rats at 0.05 mg/kg, iv
Type: ADME, organism-based
Details: rat, in vivo
In this section we review reported CL free values for a set of compounds.
// return numeric value only (unit: mL/min/kg, not printed)

Worked cases, answers included:
smilesString: Cc1nccc(N2CC3(CC3)c3nc(C4(NC(=O)c5ccc(F)cc5)CC4)ccc32)n1
unitAbbrev: mL/min/kg
resultNumber: 1176

smilesString: O=C(OC1CC1)N1CCc2cc(C3(C(=O)Nc4ccc(F)cc4)CCC3)ccc21
unitAbbrev: mL/min/kg
resultNumber: 7720

Consider "O=C(NC1(c2ccc3c(n2)CCN3C(=O)OC2CC2)CCC1)c1ccc(Cl)cc1" . Its measured CL free is 2049

Consider "O=C(C1CC1)N1CCc2nc(C3(C(=O)Nc4ccc(F)cc4)CCC3)ccc21" . Its measured CL free is 668

Consider "O=C(Nc1ccc(Cl)cc1)C1(c2ccc3c(n2)CCN3c2ccccn2)CCC1" . Its measured CL free is 35929

Consider "O=C(NC1(c2ccc3c(n2)CCN3C(=O)OC2CC2)CC1)c1ccc(Cl)cc1" . Its measured CL free is 174

Consider "COC(=O)N1c2ccc(C3(NC(=O)c4ccc(F)cc4)CC3)cc2[C@@H]2CC[C@@H]21" . Its measured CL free is 2899

Consider "COC(=O)N1c2ccc(C3(NC(=O)c4ccc(F)cc4)CC3)cc2[C@H]2CC[C@H]21" . Its measured CL free is 2318

Consider "O=C(OC1CC1)N1CCc2nc(C3(C(=O)Nc4ccc(F)cc4)CCC3)ccc21" . Its measured CL free is 1691

====

Test: Clearance in Wistar Han rats at 0.05 mg/kg, iv
Format: ADME, organism-based
Details: rat, in vivo
quantityName: clearance (mL/min/kg)
// return numeric value only (unit: mL/min/kg, not printed)

smilesString: O=C(NC1(c2ccc3c(n2)CCN3C(=O)OC2CC2)CC1)c1ccc(Cl)cc1
clearance / mL/min/kg: 4.8
--
smilesString: O=C(C1CC1)N1CCc2nc(C3(C(=O)Nc4ccc(F)cc4)CCC3)ccc21
clearance / mL/min/kg: 60
--
smilesString: O=C(OC1CC1)N1CCc2cc(C3(C(=O)Nc4ccc(F)cc4)CCC3)ccc21
clearance / mL/min/kg: 87
--
smilesString: O=C(NC1(c2ccc3c(n2)CCN3C(=O)OC2CC2)CCC1)c1ccc(Cl)cc1
clearance / mL/min/kg: 20

// next item, clearance requested
Consider "Cc1nccc(N2c3ccc(C4(NC(=O)c5ccc(F)cc5)CC4)cc3[C@H]3C[C@H]32)n1" . Its measured clearance is 3.3

====

Target: Indoleamine 2,3-dioxygenase 1 (Homo sapiens)
Sequence (P14902 whole entry): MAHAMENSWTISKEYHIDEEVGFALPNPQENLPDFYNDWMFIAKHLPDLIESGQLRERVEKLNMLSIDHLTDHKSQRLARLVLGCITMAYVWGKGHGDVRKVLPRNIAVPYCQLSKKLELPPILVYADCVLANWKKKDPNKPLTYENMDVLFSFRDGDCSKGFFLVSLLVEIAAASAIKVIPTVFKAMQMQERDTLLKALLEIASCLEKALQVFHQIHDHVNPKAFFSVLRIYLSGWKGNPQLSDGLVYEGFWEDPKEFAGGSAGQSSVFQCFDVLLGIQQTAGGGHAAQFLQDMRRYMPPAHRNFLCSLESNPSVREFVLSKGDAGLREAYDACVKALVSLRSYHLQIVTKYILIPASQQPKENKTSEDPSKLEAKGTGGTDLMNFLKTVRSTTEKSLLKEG
Assay: Inhibition of human IDO1 by human whole blood assay
Format: tissue-based
In this section we review reported IC50 values for a set of compounds.
// return numeric value only (unit: nM, not printed)

Worked cases, answers included:
smilesString: Cc1nccc(N2c3ccc(C4(NC(=O)c5ccc(F)cc5)CC4)cc3[C@H]3C[C@H]32)n1
IC50 / nM: 180
--
smilesString: O=C(OC1CC1)N1CCc2nc(C3(C(=O)Nc4ccc(Cl)cc4)CCC3)ccc21
IC50 / nM: 90
--
smilesString: O=C(NC1(c2ccc3c(n2)CCN3c2ccnc(C(F)(F)F)n2)CCC1)c1ccc(Cl)cc1
IC50 / nM: 240
--
smilesString: O=C(NC1(c2ccc3c(n2)CCN3C(=O)OC2CC2)CCC1)c1ccc(Cl)cc1
IC50 / nM: 63
--
smilesString: Cc1nccc(N2CCc3nc(C4(C(=O)Nc5ccc(F)cc5)CCC4)ccc32)n1
IC50 / nM: 430
--
smilesString: O=C(Nc1ccc(Cl)cc1)C1(c2ccc3c(n2)CCN3c2ccccn2)CCC1
IC50 / nM: 340
--
smilesString: Cc1nccc(N2CCc3cc(C4(C(=O)Nc5ccc(F)cc5)CCC4)ccc32)n1
IC50 / nM: 430
--
smilesString: COC(=O)N1c2ccc(C3(NC(=O)c4ccc(F)cc4)CC3)cc2[C@H]2CC[C@H]21
IC50 / nM: 300

Consider "O=C(NC1(c2ccc3c(n2)CCN3C(=O)OC2CC2)CC1)c1ccc(Cl)cc1" . Its measured IC50 is 390
